All figures here come from the supplement of paper PMC10899765.

# System: MCF10A
# Test protocol: percent viability (nuclei count relative to siNT); higher = more viable cells
# Cond: 20 nM; 72 h
For each record, check the reported percent viability: if it is below 20% write t, else write f.

In [3]: df
Out[3]:
                            entry_sequence  target_under_test  class_name
0  UCUGUGGAGUGGGGUGCCUGU [hsa-miR-7114-5p]             MCF10A           t

Q. Dear colleague, could you confirm whether percent viability of UGACAACUAUGGAUGAGCUCU [hsa-miR-549a] falls below 20%? Thanks.
A. f

Q. In plain terms, does UAGCAGCACAUAAUGGUUUGUG [hsa-miR-15a-5p] come in under 20% for percent viability?
A. t

Q. Does ACCCUCGUCAGGUCCCCGGGG [hsa-miR-4655-3p] have percent viability strictly under 20%?
A. f

Q. Below 20% on percent viability? Entry UUGGAGGCGUGGGUUUU [hsa-miR-4443]
A. f

* * *

# Tested on: MCF10A
# Test protocol: one-nucleolus phenotype percent effect (relative to siNT 0% and siNOL11 100%); higher = more cells with one nucleolus (ribosome biogenesis inhibition)
# Cond: 20 nM; 72 h
Recorded endpoint: one-nucleolus phenotype percent effect (%)
Give bare numbers, in %.

Solved entries:
In [3]: df
Out[3]:
                             entry_sequence  value_units  recorded_number
0      CUGGCCCUCUCUGCCCUUCCGU [hsa-miR-328]            %            -8.63
1      CACACACACACACACACGUAU [hsa-miR-8485]            %             57.6
2  AAAACUAGGACUGUGUGGUGUA [hsa-miR-7844-5p]            %             15.8
3  UUGGGAUCAUUUUGCAUCCAUA [hsa-miR-450b-3p]            %            -1.71
4  UAAUACUGCCGGGUAAUGAUGGA [hsa-miR-200c-3p]            %              -17
5        GAGGCUGAAGGAAGAUGG [hsa-miR-4419b]            %             21.1
6  CCCCGGUGUUGGGGCGCGUCUGC [hsa-miR-4783-3p]            %              -13
7  CUGGGAGGUGUGAUAUCGUGGU [hsa-miR-3689a-3p]            %             27.5
8  GUGCAUGGCUGUAUAUAUAACA [hsa-miR-5011-3p]            %             0.75
9  UAAUGCCCCUAAAAAUCCUUAU [hsa-miR-365a-3p]            %             2.74

For the 6 sequences below, give their one-nucleolus phenotype percent effect values.
1. AAAAGUAACUAUGGUUUUUGCC [hsa-miR-548bb-5p]
2. AACUGAACCAGGAGUGAGCUUCG [hsa-miR-4724-5p]
3. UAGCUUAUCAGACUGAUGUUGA [hsa-miR-21-5p]
4. UAAAGAGCCCUGUGGAGACA [hsa-miR-1276]
5. CCAGACUGUGGCUGACCAGAGG [hsa-miR-4494]
6. UGCUGCCUCUCCUCUUGCCUGCAG [hsa-miR-6882-3p]

A.
-28.8
6.7
-9.39
24.1
-29.5
-22.8
